# test.target: Biotinylated recombinant human CD3εδ (Acro Biosystems, CDD-H82W6) (human) (UniProt P07766)
# Sequence (P07766 23-126, stated change not applied, chain 1 of 2): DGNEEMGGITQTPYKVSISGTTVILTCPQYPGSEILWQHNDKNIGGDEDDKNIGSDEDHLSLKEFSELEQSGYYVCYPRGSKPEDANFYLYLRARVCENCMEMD
# Sequence (P04234 22-105, stated change not applied, chain 2 of 2, further chain): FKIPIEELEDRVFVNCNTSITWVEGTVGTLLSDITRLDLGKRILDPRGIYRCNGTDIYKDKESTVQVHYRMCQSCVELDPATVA
# method.description: Octet BLI, biotinylated CD3εδ on streptavidin sensors, 1:1 model
parameter.measured: pKd
pKd here: minus log base 10 of the concentration, concentration in moles per litre.

{"columns": ["binder", "pKd"],
 "data": [
  ["EGFR-CD3 DuetMab with anti-CD3 variant AZ Vκ 29 + AZ VH E75 (bispecific antibody, part only; not given: anti-EGFR arm, constant regions, V domains shown, not shown: another chain or arm of the molecule; a dimerising Fc or GST; small tags and cut ends) VH: EVQLVESGGALVKPGGSLRLSCAASGFTFTEAWMHWVRQAPGKQLEWVAQIKDRSQTYATYYAESVKGRFTISRDDSKNTLYLQMNSLKTEDTAVYYCRGVYYANAPFDYWGQGTLVTVSS VL: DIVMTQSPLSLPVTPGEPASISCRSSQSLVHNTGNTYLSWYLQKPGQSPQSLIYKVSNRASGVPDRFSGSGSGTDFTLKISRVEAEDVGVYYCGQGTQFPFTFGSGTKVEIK", 5.65]
]}

## Task Specify reported pKd for the binder shown: EGFR-CD3 DuetMab with anti-CD3 variant AZ Vκ 26 + AZ VH SN79 (bispecific antibody, part only; not given: anti-EGFR arm, constant regions, V domains shown, not shown: another chain or arm of the molecule; a dimerising Fc or GST; small tags and cut ends) VH: EVQLVESGGALVKPGGSLRLSCAASGFTFSNAWMHWVRQAPGKQLEWVAQIKDRSQTYATYYAESVKGRFTISRDDSKNTLYLQMNSLKTEDTAVYYCRGVYYAVTPFDYWGQGTLVTVSS VL: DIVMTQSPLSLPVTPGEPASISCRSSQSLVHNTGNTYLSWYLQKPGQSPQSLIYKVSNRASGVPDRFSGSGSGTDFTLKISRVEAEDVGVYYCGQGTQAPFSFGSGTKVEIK
## Result 5.71
